Reference for the values: ChEMBL document CHEMBL3046894

assay: Pre-emergence phytotoxicity against Gossypium hirsutum (cotton) assessed as mortality at 6.3 g a.i/10 a; type: organism-based; details: in vivo, 6.3 g a.i/10 a, read-out: mortality

- smiles-string: "COc1cc(OC)nc(Oc2cccc([N+](=O)[O-])c2C(=O)O)n1"
  mortality: "< 5%"

----------
system: Zea mays; test: Post-emergence phytotoxicity against Zea mays (maize) assessed as mortality at 1.6 g a.i/10 a applied 11 days after germination as foliar spray; format: organism-based; conditions: in vivo, other, 264 h

- compound: "CCSc1cccc(Sc2nc(OC)cc(OC)n2)c1C(=O)O"
  assay-target: "Zea mays"
  Activity: "Toxic"
- compound: "COc1cc(OC)nc(Sc2cccc(C)c2C(=O)O)n1"
  assay-target: "Zea mays"
  Activity: "Toxic"
- compound: "COc1cc(OC)nc(Sc2cccc(C(C)=O)c2C(=O)O)n1"
  assay-target: "Zea mays"
  Activity: "Toxic"
- compound: "CCCOc1cccc(Sc2nc(OC)cc(OC)n2)c1C(=O)O"
  assay-target: "Zea mays"
  Activity: "Non-toxic"
- compound: "COc1cc(OC)nc(Oc2cccc(OC(F)F)c2C(=O)O)n1"
  assay-target: "Zea mays"
  Activity: "Toxic"
- compound: "COc1cc(OC)nc(Oc2cccc(N)c2C(=O)O)n1"
  assay-target: "Zea mays"
  Activity: "Toxic"
- compound: "COc1cc(OC)nc(Sc2cccc(OC(C)C)c2C(=O)O)n1"
  assay-target: "Zea mays"
  Activity: "Toxic"
- compound: "COc1cc(OC)nc(Oc2cccc(SC)c2C(=O)O)n1"
  assay-target: "Zea mays"
  Activity: "Toxic"
- compound: "COc1cc(OC)nc(Oc2cccc([N+](=O)[O-])c2C(=O)O)n1"
  assay-target: "Zea mays"
  Activity: "Non-toxic"
- compound: "COC(=O)c1cccc(Oc2nc(OC)cc(OC)n2)c1C(=O)O"
  assay-target: "Zea mays"
  Activity: "Toxic"
- compound: "COc1cc(OC)nc(Sc2cccc(Cl)c2C(=O)O)n1 [PYRITHIOBAC]"
  assay-target: "Zea mays"
  Activity: "Toxic"

----------
test system: Gossypium hirsutum; assay: Pre-emergence phytotoxicity against Gossypium hirsutum (cotton) assessed as mortality at 1.6 g a.i/10 a; assay type: organism-based; settings: in vivo, other

- smiles-string: "COc1cc(OC)nc(Sc2cccc(OC(C)C)c2C(=O)O)n1"
  Activity: "< 50%"
- smiles-string: "COc1cc(OC)nc(Oc2cccc(OC(F)F)c2C(=O)O)n1"
  Activity: "Non-toxic"
- smiles-string: "COc1cc(OC)nc(Oc2cccc(C(F)(F)F)c2C(=O)O)n1"
  Activity: "Non-toxic"
- smiles-string: "COc1cc(OC)nc(Sc2cccc(Cl)c2C(=O)O)n1"
  Activity: "< 50%"
- smiles-string: "COc1cc(OC)nc(Sc2cccc(C(C)=O)c2C(=O)O)n1"
  Activity: "< 50%"
- smiles-string: "COc1cc(OC)nc(Sc2cccc(I)c2C(=O)O)n1"
  Activity: "< 50%"

----------
tested on: Zea mays; test: Pre-emergence phytotoxicity against Zea mays (maize) assessed as mortality at 1.6 g a.i/10 a; format: organism-based; details: in vivo, other

- smiles-string: "CCOc1cccc(Oc2nc(OC)cc(OC)n2)c1C(=O)O"
  Activity: "Toxic"
- smiles-string: "COc1cc(OC)nc(Oc2ccccc2C(=O)O)n1"
  Activity: "Non-toxic"
- smiles-string: "COc1cc(OC)nc(Sc2cccc(Cl)c2C(=O)O)n1"
  Activity: "Toxic"
- smiles-string: "COc1cc(OC)nc(Oc2cccc(OC(F)F)c2C(=O)O)n1"
  Activity: "Non-toxic"
- smiles-string: "CCc1cccc(Oc2nc(OC)cc(OC)n2)c1C(=O)O"
  Activity: "Toxic"
- smiles-string: "COc1cc(OC)nc(Sc2cccc(C(F)(F)F)c2C(=O)O)n1"
  Activity: "Non-toxic"
- smiles-string: "COc1cc(OC)nc(Sc2cccc(I)c2C(=O)O)n1"
  Activity: "Toxic"
- smiles-string: "COc1cc(OC)nc(Oc2cccc(OC)c2C(=O)O)n1"
  Activity: "Toxic"
- smiles-string: "COc1cc(OC)nc(Sc2cccc(Br)c2C(=O)O)n1"
  Activity: "Toxic"
- smiles-string: "CCOc1cccc(Sc2nc(OC)cc(OC)n2)c1C(=O)O"
  Activity: "Non-toxic"
- smiles-string: "COc1cc(OC)nc(Sc2cccc(C(C)=O)c2C(=O)O)n1"
  Activity: "Non-toxic"
- smiles-string: "COc1cc(OC)nc(Sc2cccc(F)c2C(=O)O)n1"
  Activity: "Toxic"
- smiles-string: "COc1cc(OC)nc(Sc2cccc(C)c2C(=O)O)n1"
  Activity: "Toxic"
- smiles-string: "COc1cc(OC)nc(Sc2cccc([N+](=O)[O-])c2C(=O)O)n1"
  Activity: "Non-toxic"
